systemUnderTest: hNR2B (Homo sapiens, UniProt Q05586+Q13224)
Construct: expressed in transfected cells; host or cells: Xenopus laevis oocytes, cRNA-injected
Sequence (Q13224 27-1484, other chains not shown): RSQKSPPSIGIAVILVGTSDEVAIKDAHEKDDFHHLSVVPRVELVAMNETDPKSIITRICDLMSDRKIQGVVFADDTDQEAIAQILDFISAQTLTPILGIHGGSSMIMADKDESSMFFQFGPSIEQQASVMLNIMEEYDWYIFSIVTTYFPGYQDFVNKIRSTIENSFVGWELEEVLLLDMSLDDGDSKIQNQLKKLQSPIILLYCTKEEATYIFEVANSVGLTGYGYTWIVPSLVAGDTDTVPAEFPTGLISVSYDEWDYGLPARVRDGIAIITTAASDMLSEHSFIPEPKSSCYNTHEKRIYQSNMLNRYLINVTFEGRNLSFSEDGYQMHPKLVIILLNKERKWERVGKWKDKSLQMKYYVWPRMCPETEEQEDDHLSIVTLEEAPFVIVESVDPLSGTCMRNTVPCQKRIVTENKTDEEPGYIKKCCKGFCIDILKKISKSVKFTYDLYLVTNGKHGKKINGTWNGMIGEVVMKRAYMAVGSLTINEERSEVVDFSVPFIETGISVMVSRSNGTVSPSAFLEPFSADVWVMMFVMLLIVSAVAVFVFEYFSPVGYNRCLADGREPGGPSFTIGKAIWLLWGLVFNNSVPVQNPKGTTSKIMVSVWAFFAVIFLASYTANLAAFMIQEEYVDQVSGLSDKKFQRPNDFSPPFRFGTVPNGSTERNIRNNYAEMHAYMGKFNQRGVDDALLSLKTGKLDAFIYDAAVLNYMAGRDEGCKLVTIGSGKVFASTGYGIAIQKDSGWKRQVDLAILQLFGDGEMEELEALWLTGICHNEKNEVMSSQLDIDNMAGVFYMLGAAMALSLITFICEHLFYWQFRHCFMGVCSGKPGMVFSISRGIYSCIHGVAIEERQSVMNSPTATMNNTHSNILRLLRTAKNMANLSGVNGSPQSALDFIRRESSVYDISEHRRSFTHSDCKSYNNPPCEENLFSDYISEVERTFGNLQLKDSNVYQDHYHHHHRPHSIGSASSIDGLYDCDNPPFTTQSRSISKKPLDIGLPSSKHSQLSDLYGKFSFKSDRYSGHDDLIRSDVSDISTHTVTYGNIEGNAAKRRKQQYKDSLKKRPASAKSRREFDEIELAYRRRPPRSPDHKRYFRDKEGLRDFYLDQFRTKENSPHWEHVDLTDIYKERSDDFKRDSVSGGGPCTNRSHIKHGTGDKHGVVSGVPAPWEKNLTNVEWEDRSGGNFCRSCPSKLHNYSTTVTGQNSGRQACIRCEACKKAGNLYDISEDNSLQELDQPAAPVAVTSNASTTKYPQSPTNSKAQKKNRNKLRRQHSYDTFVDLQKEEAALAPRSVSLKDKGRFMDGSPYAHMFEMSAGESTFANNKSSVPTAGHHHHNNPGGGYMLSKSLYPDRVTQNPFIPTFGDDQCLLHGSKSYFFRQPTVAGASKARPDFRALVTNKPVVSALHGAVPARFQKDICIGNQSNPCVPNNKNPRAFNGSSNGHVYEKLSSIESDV
testDetails: Electrophysiology NMDA receptor experiments: two electrode voltage-clamp in Xenopus laevis oocytes, hNR2B IC50
Format: cell-based
settings: voltage clamp -40 mV, 50 μM glutamate, 30 μM glycine, read-out: hNR2B IC50
pIC50 values for the molecules below.
# reply with the number alone; pIC50 is -log10 of concentration in mol/L

Record excerpt, results attached:
Dear colleague, please send me the reported pIC50 for Cn1c(CCc2ccc3[nH]ncc3c2)nnc1Nc1ccc(OC(F)F)cc1 when you can.
6.98

Dear colleague, please send me the reported pIC50 for FC(F)Oc1ccc(Nc2noc(CCc3ccc4[nH]ncc4c3)n2)cc1 when you can.
6.33

Dear colleague, please send me the reported pIC50 for Oc1ccc(CCc2nnc(Nc3ccc(C(F)(F)F)cc3)o2)cc1 when you can.
7.32

Dear colleague, please send me the reported pIC50 for O=c1ccc2cc(OCc3nnc(Cc4ccc(Cl)c(Cl)c4)[nH]3)ccc2[nH]1 when you can.
5.30

Dear colleague, please send me the reported pIC50 for Oc1ccc(CCc2nc(NCc3ccc(Cl)cc3)no2)cc1 when you can.
6.49

Dear colleague, please send me the reported pIC50 for O=c1ccc2cc(OCc3cc(Nc4ccc(Cl)c(Cl)c4)no3)ccc2[nH]1 when you can.
6.71

Dear colleague, please send me the reported pIC50 for CCOC(=O)Nc1ccc(OCc2nnc(NCc3ccc(Cl)c(Cl)c3)o2)cc1 when you can.
5.67

Dear colleague, please send me the reported pIC50 for O=c1ccc2cc(OCc3nnc(Nc4ccc(OC(F)F)cc4)o3)ccc2[nH]1 when you can.
7.10

Dear colleague, please send me the reported pIC50 for O=C1CCc2cc(OCc3nnc(-c4ccc(Cl)cc4)[nH]3)ccc2N1 when you can.
5.52

// next item, pIC50 requested
Dear colleague, please send me the reported pIC50 for Cn1c(COc2ccc3[nH]c(=O)ccc3c2)nnc1Nc1ccc(Cl)c(Cl)c1 when you can.
7.62
